Measured values drawn from the supplement of paper PMC6555819 for this set.

What PBM binding z-score was measured for each of the following?
Test system: PPARg:RXRa 90nM:30nM, anti-RXR (NR concentration 90 nM, RXRa partner concentration 30 nM)
method: PBM binding z-score (relative to random genomic background probes); higher = stronger binding; sequences stand for … in GC…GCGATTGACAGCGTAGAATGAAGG
API doc: respond with a numeric literal and nothing else, no unit.

Problem: Query for PPARg:RXRa 90nM:30nM, anti-RXR (NR concentration 90 nM, RXRa partner concentration 30 nM): what PBM binding z-score does the record show for `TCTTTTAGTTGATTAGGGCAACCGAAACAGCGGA` ?
Result: 3.34

Problem: Notebook: pull reported PBM binding z-score for PPARg:RXRa 90nM:30nM, anti-RXR (NR concentration 90 nM, RXRa partner concentration 30 nM), entry `CCTAATGGGCCATTCAGAGGTCATTGATCATATG`
Result: 1.54

Problem: Enter reported PBM binding z-score observed with PPARg:RXRa 90nM:30nM, anti-RXR (NR concentration 90 nM, RXRa partner concentration 30 nM) for `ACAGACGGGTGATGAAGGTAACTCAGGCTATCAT`
Result: -0.458

Problem: Give PBM binding z-score (PPARg:RXRa 90nM:30nM, anti-RXR (NR concentration 90 nM, RXRa partner concentration 30 nM)) of the following sequence: `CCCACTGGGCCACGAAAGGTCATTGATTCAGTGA`
Result: 3.53

Problem: Provide value of PBM binding z-score for this record tested with PPARg:RXRa 90nM:30nM, anti-RXR (NR concentration 90 nM, RXRa partner concentration 30 nM): `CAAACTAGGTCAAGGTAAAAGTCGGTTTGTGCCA`
Result: 6.9

Problem: Item `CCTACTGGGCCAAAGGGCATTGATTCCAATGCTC` with PPARg:RXRa 90nM:30nM, anti-RXR (NR concentration 90 nM, RXRa partner concentration 30 nM) - PBM binding z-score?
Result: 9.29

Problem: Observed PBM binding z-score on PPARg:RXRa 90nM:30nM, anti-RXR (NR concentration 90 nM, RXRa partner concentration 30 nM) for `GGAACCAGGGCAAAGTTGATAGCATCTGTCGACG` , please.
Result: 7.86

Problem: Observed PBM binding z-score on PPARg:RXRa 90nM:30nM, anti-RXR (NR concentration 90 nM, RXRa partner concentration 30 nM) for `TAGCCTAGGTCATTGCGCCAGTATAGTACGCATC` , please.
Result: 1.63

Problem: Can you look up PBM binding z-score on PPARg:RXRa 90nM:30nM, anti-RXR (NR concentration 90 nM, RXRa partner concentration 30 nM) for `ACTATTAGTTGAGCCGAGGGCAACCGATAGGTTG` ?
Result: -0.0304

Problem: Form entry - test system: PPARg:RXRa 90nM:30nM, anti-RXR (NR concentration 90 nM, RXRa partner concentration 30 nM); read-out: PBM binding z-score; sequence: `AGCGAAAGGTCGTGAGGTGAGTATACAGAAAGGC`
Result: 3.25

Problem: PBM binding z-score of `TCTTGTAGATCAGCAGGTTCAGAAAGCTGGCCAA` on PPARg:RXRa 90nM:30nM, anti-RXR (NR concentration 90 nM, RXRa partner concentration 30 nM)?
Result: 1.52

Problem: Give the reported PBM binding z-score for `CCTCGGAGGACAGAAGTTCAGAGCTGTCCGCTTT` (system: PPARg:RXRa 90nM:30nM, anti-RXR (NR concentration 90 nM, RXRa partner concentration 30 nM)).
Result: -0.788

Problem: # query: PBM binding z-score | item `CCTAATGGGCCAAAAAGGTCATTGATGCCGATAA` | system: PPARg:RXRa 90nM:30nM, anti-RXR (NR concentration 90 nM, RXRa partner concentration 30 nM)
Result: 2.69

Problem: State its PBM binding z-score on PPARg:RXRa 90nM:30nM, anti-RXR (NR concentration 90 nM, RXRa partner concentration 30 nM): `TCTAGCAGGCCAGAGAGTCACTCAAGAGGTACGG`
Result: 1.4

Problem: Provide value of PBM binding z-score for this record tested with PPARg:RXRa 90nM:30nM, anti-RXR (NR concentration 90 nM, RXRa partner concentration 30 nM): `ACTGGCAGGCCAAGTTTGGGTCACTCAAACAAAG`
Result: -0.496

Problem: # returns recorded PBM binding z-score (system: PPARg:RXRa 90nM:30nM, anti-RXR (NR concentration 90 nM, RXRa partner concentration 30 nM)) for `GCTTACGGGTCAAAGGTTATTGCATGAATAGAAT`
Result: 10.8

Problem: API: value(readout= PBM binding z-score, system= PPARg:RXRa 90nM:30nM, anti-RXR (NR concentration 90 nM, RXRa partner concentration 30 nM), query= `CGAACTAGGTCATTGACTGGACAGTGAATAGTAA` )
Result: 5.78

Problem: Observed PBM binding z-score on PPARg:RXRa 90nM:30nM, anti-RXR (NR concentration 90 nM, RXRa partner concentration 30 nM) for `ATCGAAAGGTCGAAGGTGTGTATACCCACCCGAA` , please.
Result: 2.35

Problem: Please provide the recorded PBM binding z-score for `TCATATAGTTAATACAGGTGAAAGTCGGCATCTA` , tested on PPARg:RXRa 90nM:30nM, anti-RXR (NR concentration 90 nM, RXRa partner concentration 30 nM).
Result: 3.7

Problem: API: value(readout=PBM binding z-score, system=PPARg:RXRa 90nM:30nM, anti-RXR (NR concentration 90 nM, RXRa partner concentration 30 nM)) for record `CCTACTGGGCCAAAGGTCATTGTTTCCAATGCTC`
Result: 11.3

Problem: So what PBM binding z-score did `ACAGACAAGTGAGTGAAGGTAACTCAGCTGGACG` get with PPARg:RXRa 90nM:30nM, anti-RXR (NR concentration 90 nM, RXRa partner concentration 30 nM)?
Result: -0.0069

Problem: Give PBM binding z-score (PPARg:RXRa 90nM:30nM, anti-RXR (NR concentration 90 nM, RXRa partner concentration 30 nM)) of the following sequence: `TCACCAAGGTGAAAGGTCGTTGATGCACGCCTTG`
Result: 7.43

Problem: What reported PBM binding z-score corresponds to `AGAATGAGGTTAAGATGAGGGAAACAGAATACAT` on PPARg:RXRa 90nM:30nM, anti-RXR (NR concentration 90 nM, RXRa partner concentration 30 nM)?
Result: 1.78

Problem: Recall the recorded PBM binding z-score for `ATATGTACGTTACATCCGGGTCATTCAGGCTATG` with PPARg:RXRa 90nM:30nM, anti-RXR (NR concentration 90 nM, RXRa partner concentration 30 nM) and state it.
Result: 1.35

Problem: What is its PBM binding z-score for PPARg:RXRa 90nM:30nM, anti-RXR (NR concentration 90 nM, RXRa partner concentration 30 nM)? Entry: `GCGGCTGGGGCATCAGCAGGTTACCATAACTTAA`
Result: -0.53

Problem: What value of PBM binding z-score on PPARg:RXRa 90nM:30nM, anti-RXR (NR concentration 90 nM, RXRa partner concentration 30 nM) does `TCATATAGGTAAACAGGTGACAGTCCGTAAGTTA` have?
Result: 3.91

Problem: Notebook entry, PPARg:RXRa 90nM:30nM, anti-RXR (NR concentration 90 nM, RXRa partner concentration 30 nM) assay: PBM binding z-score of `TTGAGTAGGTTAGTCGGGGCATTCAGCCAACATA` = ?
Result: 0.742

Problem: Identify the measured PBM binding z-score of `TCATATAGGTAAAGGTGAACGTCGAACGATATGA` for PPARg:RXRa 90nM:30nM, anti-RXR (NR concentration 90 nM, RXRa partner concentration 30 nM).
Result: 5.08

Problem: Tell me reported PBM binding z-score for `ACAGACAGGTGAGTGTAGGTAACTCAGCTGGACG` , tested with PPARg:RXRa 90nM:30nM, anti-RXR (NR concentration 90 nM, RXRa partner concentration 30 nM).
Result: -0.0696

Problem: Give recorded PBM binding z-score with PPARg:RXRa 90nM:30nM, anti-RXR (NR concentration 90 nM, RXRa partner concentration 30 nM) for the following sequence: `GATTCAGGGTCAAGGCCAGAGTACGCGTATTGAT`
Result: 5.41

Problem: Lookup: PBM binding z-score / PPARg:RXRa 90nM:30nM, anti-RXR (NR concentration 90 nM, RXRa partner concentration 30 nM) / `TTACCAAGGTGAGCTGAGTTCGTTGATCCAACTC`
Result: 0.19

Problem: What measured PBM binding z-score is associated with `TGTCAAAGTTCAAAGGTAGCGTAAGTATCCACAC` on PPARg:RXRa 90nM:30nM, anti-RXR (NR concentration 90 nM, RXRa partner concentration 30 nM)?
Result: 7.05

Problem: Tell me reported PBM binding z-score for `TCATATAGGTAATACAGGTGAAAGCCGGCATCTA` , tested with PPARg:RXRa 90nM:30nM, anti-RXR (NR concentration 90 nM, RXRa partner concentration 30 nM).
Result: 3.35

Problem: Write down the reported PBM binding z-score of `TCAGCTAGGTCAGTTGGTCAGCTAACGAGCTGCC` , test system: PPARg:RXRa 90nM:30nM, anti-RXR (NR concentration 90 nM, RXRa partner concentration 30 nM).
Result: 1.94

Problem: Value wanted: PBM binding z-score (PPARg:RXRa 90nM:30nM, anti-RXR (NR concentration 90 nM, RXRa partner concentration 30 nM)) of entry `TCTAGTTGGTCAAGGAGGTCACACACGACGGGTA`
Result: 3.39

Problem: Could you share what PBM binding z-score was measured for `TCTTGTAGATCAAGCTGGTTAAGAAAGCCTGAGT` , tested on PPARg:RXRa 90nM:30nM, anti-RXR (NR concentration 90 nM, RXRa partner concentration 30 nM)?
Result: 1.73

Problem: Hi! What's the reported PBM binding z-score for `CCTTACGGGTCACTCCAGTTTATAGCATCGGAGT` on PPARg:RXRa 90nM:30nM, anti-RXR (NR concentration 90 nM, RXRa partner concentration 30 nM)?
Result: 2.27

Problem: Fill in the recorded PBM binding z-score for this sequence, with PPARg:RXRa 90nM:30nM, anti-RXR (NR concentration 90 nM, RXRa partner concentration 30 nM) as test system: `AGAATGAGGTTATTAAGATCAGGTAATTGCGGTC`
Result: 1.09
